Values compiled from ChEMBL document CHEMBL1132550.

molecular target: Metabotropic glutamate receptor 1 (Homo sapiens); test: Compound was tested for its […] activity against Ser165 and Thr188 (Metabotropic glutamate receptor 1) receptor.
Sequence (Q13255 whole entry): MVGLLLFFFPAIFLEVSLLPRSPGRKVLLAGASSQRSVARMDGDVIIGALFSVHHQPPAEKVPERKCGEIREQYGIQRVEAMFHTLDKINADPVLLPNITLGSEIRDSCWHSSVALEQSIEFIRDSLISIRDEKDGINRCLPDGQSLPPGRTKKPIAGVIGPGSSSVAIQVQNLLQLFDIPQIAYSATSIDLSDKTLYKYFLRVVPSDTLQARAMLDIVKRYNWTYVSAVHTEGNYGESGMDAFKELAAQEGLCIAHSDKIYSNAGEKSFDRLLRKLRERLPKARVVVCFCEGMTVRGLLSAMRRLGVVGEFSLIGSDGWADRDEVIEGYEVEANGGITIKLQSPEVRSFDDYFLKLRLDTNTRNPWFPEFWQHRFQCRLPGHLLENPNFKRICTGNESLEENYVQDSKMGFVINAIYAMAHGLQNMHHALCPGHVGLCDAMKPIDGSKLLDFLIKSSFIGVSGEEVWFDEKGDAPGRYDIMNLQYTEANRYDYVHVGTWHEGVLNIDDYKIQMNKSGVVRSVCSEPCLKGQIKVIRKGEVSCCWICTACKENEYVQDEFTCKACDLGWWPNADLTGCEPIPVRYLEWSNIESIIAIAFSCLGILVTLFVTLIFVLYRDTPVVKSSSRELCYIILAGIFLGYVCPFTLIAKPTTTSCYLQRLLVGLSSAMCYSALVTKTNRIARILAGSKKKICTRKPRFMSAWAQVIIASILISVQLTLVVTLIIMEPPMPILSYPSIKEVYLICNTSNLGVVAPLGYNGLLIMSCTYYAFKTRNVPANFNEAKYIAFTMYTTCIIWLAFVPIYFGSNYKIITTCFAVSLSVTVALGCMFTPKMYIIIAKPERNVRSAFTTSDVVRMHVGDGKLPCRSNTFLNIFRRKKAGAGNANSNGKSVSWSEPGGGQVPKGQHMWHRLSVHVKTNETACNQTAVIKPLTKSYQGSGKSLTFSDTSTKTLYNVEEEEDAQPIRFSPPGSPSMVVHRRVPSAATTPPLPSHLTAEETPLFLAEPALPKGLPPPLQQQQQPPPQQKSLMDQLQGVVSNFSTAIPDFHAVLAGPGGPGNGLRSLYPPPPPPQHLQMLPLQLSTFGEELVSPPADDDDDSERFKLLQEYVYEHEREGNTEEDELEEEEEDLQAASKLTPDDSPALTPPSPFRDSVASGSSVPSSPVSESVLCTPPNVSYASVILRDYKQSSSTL
pIC50: −log10 of the molar value.
List of pIC50 values.

**Q:** # get_value(readout='pIC50', item= N[C@]1(C(=O)O)CCc2cc(C(=O)O)ccc21 )
**A:** 3.67

**Q:** Would you kindly share the measured pIC50 for Cc1cccc(/C=C/c2ccccc2)n1 ?
**A:** < 4.00

We next turn to a different compound, shown below.
**Q:** Give its pIC50 value. Item: Cc1ccc(O)c(/N=N/c2ccccc2)n1
**A:** < 4.00

* * *

biological target: UniProtKB P41594; assay: Compound was tested for it's […] activity against Ser152 and Thr175 (Metabotropic glutamate receptor 5)
Sequence (P41594 whole entry): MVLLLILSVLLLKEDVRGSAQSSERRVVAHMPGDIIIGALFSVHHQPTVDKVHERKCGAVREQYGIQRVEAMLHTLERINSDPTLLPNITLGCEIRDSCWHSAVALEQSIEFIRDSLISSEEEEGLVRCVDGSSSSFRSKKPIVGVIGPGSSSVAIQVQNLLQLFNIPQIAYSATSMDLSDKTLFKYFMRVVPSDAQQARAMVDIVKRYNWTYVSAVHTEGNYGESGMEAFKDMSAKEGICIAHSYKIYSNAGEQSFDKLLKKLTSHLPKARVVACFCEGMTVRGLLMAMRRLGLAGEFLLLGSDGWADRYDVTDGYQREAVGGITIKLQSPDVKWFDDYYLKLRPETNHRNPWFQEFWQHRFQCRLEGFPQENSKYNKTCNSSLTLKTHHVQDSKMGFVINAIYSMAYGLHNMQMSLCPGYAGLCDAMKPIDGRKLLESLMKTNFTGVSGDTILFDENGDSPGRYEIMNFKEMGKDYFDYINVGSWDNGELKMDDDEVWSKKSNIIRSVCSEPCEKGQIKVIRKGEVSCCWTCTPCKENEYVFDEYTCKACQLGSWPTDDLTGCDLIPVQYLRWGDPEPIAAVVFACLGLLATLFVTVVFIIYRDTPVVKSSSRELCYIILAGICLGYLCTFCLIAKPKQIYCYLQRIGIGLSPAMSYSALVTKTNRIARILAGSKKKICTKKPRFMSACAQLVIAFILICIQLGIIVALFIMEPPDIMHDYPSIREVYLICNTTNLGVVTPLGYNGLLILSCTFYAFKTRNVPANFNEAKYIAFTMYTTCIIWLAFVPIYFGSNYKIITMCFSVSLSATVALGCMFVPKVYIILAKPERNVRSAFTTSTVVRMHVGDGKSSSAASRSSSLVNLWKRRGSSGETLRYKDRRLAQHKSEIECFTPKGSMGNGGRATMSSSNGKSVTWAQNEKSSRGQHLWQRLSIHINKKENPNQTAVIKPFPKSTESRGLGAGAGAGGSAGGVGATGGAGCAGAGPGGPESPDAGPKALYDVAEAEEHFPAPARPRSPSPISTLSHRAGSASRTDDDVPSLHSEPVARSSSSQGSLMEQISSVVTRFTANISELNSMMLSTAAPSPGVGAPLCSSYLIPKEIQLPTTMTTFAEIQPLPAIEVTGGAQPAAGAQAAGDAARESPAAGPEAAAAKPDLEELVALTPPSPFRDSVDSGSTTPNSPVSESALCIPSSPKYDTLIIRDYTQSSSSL
pIC50: −log10 of the molar value.
assay metric: pIC50

**Q:** Looking for the measured pIC50 of Cc1cccc(/C=C/c2ccccc2)n1 , can you help?
**A:** 6.54

**Q:** Record request: pIC50 value, item Cc1ccc(O)c(/N=N/c2ccccc2)n1
**A:** 6.43
